- SYSTEM_NAME: human serum albumin (HSA) (Homo sapiens, UniProt P02768)
- Construct: purchased Sigma-Aldrich
- Sequence (P02768 25-609): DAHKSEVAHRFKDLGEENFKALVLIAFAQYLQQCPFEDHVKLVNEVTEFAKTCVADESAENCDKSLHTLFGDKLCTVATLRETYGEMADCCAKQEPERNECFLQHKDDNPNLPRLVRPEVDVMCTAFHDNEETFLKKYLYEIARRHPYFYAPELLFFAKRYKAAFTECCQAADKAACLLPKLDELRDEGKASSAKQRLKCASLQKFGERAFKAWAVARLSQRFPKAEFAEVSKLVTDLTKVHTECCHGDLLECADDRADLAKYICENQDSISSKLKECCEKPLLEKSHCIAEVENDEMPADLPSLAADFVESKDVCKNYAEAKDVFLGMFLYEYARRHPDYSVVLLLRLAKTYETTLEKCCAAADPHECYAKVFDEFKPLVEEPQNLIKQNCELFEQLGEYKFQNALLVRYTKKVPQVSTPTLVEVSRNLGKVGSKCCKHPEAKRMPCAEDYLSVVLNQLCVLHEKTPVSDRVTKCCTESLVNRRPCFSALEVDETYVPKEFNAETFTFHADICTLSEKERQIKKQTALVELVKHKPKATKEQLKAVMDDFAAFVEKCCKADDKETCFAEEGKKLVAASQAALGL
- ASSAY_COMMENT: Fluorescence quenching titration of human serum albumin
- Assay type: binding
- TEST_CONTEXT: HSA complex formation; one value for 297-308 K
READOUT: ΔG^0 (kJ/mol)
Give your result in kJ/mol as a bare value.

Just so you know, measured ΔG^0 for Cc1cc(C)c(C(=O)NCC(=O)NCc2ccccc2)c(S)n1 [Compound 3g] came out at -8.86

Just so you know, measured ΔG^0 for Cc1cc(C)c(C(=O)NCC(=O)NCc2ccc(Cl)cc2)c(S)n1 [Compound 3c] came out at -18.07

Just so you know, measured ΔG^0 for Cc1cc(C)c(C(=O)NCC(=O)NCc2ccccc2Cl)c(S)n1 [Compound 3d] came out at -17.39

Just so you know, measured ΔG^0 for Cc1cc(C)c(C(=O)NCC(=O)NCc2ccc(Oc3ccccc3)cc2)c(S)n1 [Compound 3b] came out at -13.29
